- experimental-system: Voltage-gated potassium channel subunit beta-2 (Rattus norvegicus)
- method: KvBeta enzyme negative modulators, primary screen, biochemical, NADPH fluorescence (AID 622);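 note: slope of raw intensity against log time taken from 70 to 1610 s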
- protocol-conditions: recombinant KvBeta, 4-cyanobenzaldehyde reduction, at 10 µM, hits give high values
Please enter criterion met where fluorescence slope is greater than or equal to -0.5, and criterion not met where it is lower.

The examples below pair each entry with its known result.
>  <molecule>
ONC(=Nc1ccccc1)C(=Nc1ccccc1)NO

>  <experimental-system>
Voltage-gated potassium channel subunit beta-2 (Rattus norvegicus)

>  <class-label>
criterion not met

$$$$
>  <molecule>
O=C1c2ccccc2S(=O)(=O)N1CC(O)COc1ccc(Cl)cc1 (stereo not given)

>  <experimental-system>
Voltage-gated potassium channel subunit beta-2 (Rattus norvegicus)

>  <class-label>
criterion met

$$$$
>  <molecule>
CCCCOc1ccc(CC(=O)NO)cc1

>  <experimental-system>
Voltage-gated potassium channel subunit beta-2 (Rattus norvegicus)

>  <class-label>
criterion not met

$$$$

Is fluorescence slope for COc1ccc(OC)c(C2C(C#N)=C(N)Oc3cc(C)[nH]c(=O)c32)c1 (stereo not given) at or above -0.5?
criterion not met

Is reported fluorescence slope greater than or equal to -0.5 here: "CCCCOc1ccccc1C(=O)NCCCC(=O)O"
criterion met

Test whether the molecule "CO[C@H]1C=CO[C@@]2(C)Oc3c(C)c(O)c4c(O)c(c(C=NN5CCN(C)CC5)c(O)c4c3C2=O)NC(=O)C(C)=CC=C[C@H](C)[C@H](O)[C@@H](C)[C@@H](O)[C@@H](C)[C@H](OC(C)=O)[C@@H]1C" records fluorescence slope of -0.5 or higher.
criterion not met

Quick check: does "CCCCCCc1cc2cc(-c3nnc(-c4ccccc4O)o3)c(=O)oc2cc1O" have fluorescence slope greater than or equal to -0.5?
criterion met

# check: fluorescence slope of CCCOc1ccc(CSC(CC(=O)O)C(=O)O)cc1 (stereo not given) is greater than or equal to -0.5
criterion met

Answer whether fluorescence slope of "Cc1nc2n[nH]c(N)c2c2c1COC(C)(C)C2" is greater than or equal to -0.5.
criterion not met
